Tested on: NS5A chimeric genotype 2a JFH-1 replicon with genotype 2a J6 strain NS5A gene (M31 present)
method.summary: microbe, parasite or virus in culture
Assay type: cell-based, HCV
condition: Hepatitis C virus, read-out: 2a J6
assay.metric: EC50

chem.smiles: COC[C@H]1C[C@@H](c2nc3ccc4cc5c(cc4c3[nH]2)OCc2cc(-c3cnc([C@@H]4CC[C@H](C)N4C(=O)[C@@H](NC(=O)OC)C(C)C)[nH]3)ccc2-5)N(C(=O)[C@@H](NC(=O)OC)C(C)C)C1
assay.metric: EC50
assay.value: < 1 nM

Could you now look at the following compound, please?
// query Give EC50 for COC[C@H]1C[C@@H](c2nc3ccc4cc5c(cc4c3[nH]2)OCc2cc(-c3cnc([C@@H]4CC[C@H](C)N4C(=O)[C@@H](NC(=O)OC)C(C)C)[nH]3)ccc2-5)N(C(=O)[C@H](NC(=O)OC)c2ccccc2)C1
// result < 1 nM
